# assay.text: Clearance in rat at 2 mg/kg, iv
# Type: ADME, organism-based
# Parameters: dose 2 mg/kg, route intravenous
# condition.details: in vivo
experimental.endpoint: clearance

Problem: Need clearance, item O=C(c1cccc2[nH]ncc12)N1CC[C@@](O)(c2ccccc2)[C@@H]2CCCC[C@@H]21 (racemic)
Result: 70 mL/min/kg

====

Please go through the items and note down their log10 IC50.
# target.or.system: Cannabinoid receptor 2 (Homo sapiens)
# assay.text: Agonist activity at human CB2 receptor expressed in CHOK1 cells assessed as inhibition of forskolin-induced cAMP production treated 15 mins before forskolin challenge measured after 1 hr by HTRF assay
# Assay type: functional, cell-based, CHO-K1
Please be aware that the numbers have been log10-transformed from IC50 in nM.

Problem: Need log10 IC50, item O=C(c1cccc2[nH]cnc12)N1CC[C@@](O)(c2ccccc2)[C@@H]2CCCC[C@@H]21 (racemic)
Result: 1.54

Problem: Repeat for the following compound: `CS(=O)(=O)c1cccc([C@@]2(O)CCN(C(=O)c3ccccc3)[C@H]3CCCC[C@@H]32)c1`
Result: 2.53

Problem: Repeat for the following compound: `O=C(c1cc(-c2ccccc2F)[nH]n1)N1CC[C@](O)(c2ccccc2)[C@H]2CCCC[C@H]21`
Result: 1.32

Problem: Repeat for the following compound: O=C(c1ccncn1)N1CC[C@@](O)(c2ccccc2)[C@@H]2CCCC[C@@H]21 (racemic)
Result: 2.15

Problem: Repeat for the following compound: `O=C(c1cccc2[nH]ccc12)N1CC[C@](O)(c2ccccc2)[C@H]2CCCC[C@H]21`
Result: -0.21

Problem: Repeat for the following compound: O=C(c1ccc2[nH]ccc2c1)N1CC[C@@](O)(c2ccccc2)[C@@H]2CCCC[C@@H]21 (racemic)
Result: 0.15

Problem: Repeat for the following compound: O=C(c1cccc2[nH]ncc12)N1CCC(O)(c2ccccc2)[C@@H]2CCCC[C@@H]21 (single isomer, unassigned)
Result: 0.20

====

# assay.text: Distribution coefficient, log P of the compound
# Type: physicochemical
# condition.details: octanol/water
experimental.endpoint: logP
Lab note: record just the number, no unit beside it.

Problem: Need logP, item CN1CCOCC1C(=O)N1CC[C@@](O)(c2ccccc2)[C@@H]2CCCC[C@@H]21 (mixture of isomers)
Result: 2.28

Problem: Repeat for the following compound: Cc1ccc(C(=O)N2CC[C@@](O)(c3ccccc3)[C@@H]3CCCC[C@@H]32)cn1 (racemic)
Result: 2.26

====

# Test system: Brain
# assay.text: Drug level in rat complete Freund's adjuvant-induced inflammation model brain at 30 mg/kg, sc
# Format: ADME, organism-based
# Design: dose 30 mg/kg, route subcutaneous
# condition.details: in vivo, read-out: Drug uptake
experimental.endpoint: concentration

Problem: Need concentration, item `Cc1ccc(C(=O)N2CC[C@@](O)(c3ccccc3)[C@@H]3CCCC[C@@H]32)cn1`
Result: 3.2 µM

Problem: Repeat for the following compound: `CN1CCOC[C@H]1C(=O)N1CC[C@@](O)(c2ccccc2)[C@@H]2CCCC[C@@H]21`
Result: 9.8 µM

====

# target.or.system: Cannabinoid receptor 2 (Homo sapiens)
# assay.text: Agonist activity at human CB2 receptor expressed in CHOK1 cells assessed as inhibition of forskolin-induced cAMP production treated 15 mins before forskolin challenge measured after 1 hr by HTRF assay relative to control
# Assay type: functional, cell-based
# condition.details: CHO-K1
Please go through the items and note down their Emax.
# unit: % | format: bare number

Problem: Need Emax, item O=C(c1ccc(C(F)(F)F)nc1)N1CC[C@@](O)(c2ccccc2)[C@@H]2CCCC[C@@H]21 (racemic)
Result: 96

Problem: Repeat for the following compound: `O=C(c1ccccc1)N1CC[C@](O)(c2cccc(C(F)(F)F)c2)[C@H]2CCCC[C@@H]21`
Result: -16

Problem: Repeat for the following compound: CN1CCOCC1C(=O)N1CC[C@@](O)(c2ccccc2)[C@@H]2CCCC[C@@H]21 (mixture of isomers)
Result: 100

Problem: Repeat for the following compound: CN1CCCCC1C(=O)N1CC[C@@](O)(c2ccccc2)[C@@H]2CCCC[C@@H]21 (mixture of isomers)
Result: 100

Problem: Repeat for the following compound: O=C(c1cccc2[nH]ncc12)N1CC[C@@](O)(c2ccccc2)[C@@H]2CCCC[C@@H]21 (racemic)
Result: 102

Problem: Repeat for the following compound: O=C([C@@H]1C[C@@H](O)CCN1)N1CC[C@@](O)(c2ccccc2)[C@@H]2CCCC[C@@H]21 (racemic)
Result: 87

Problem: Repeat for the following compound: CN1CCC(C(=O)N2CC[C@](O)(c3ccccc3)[C@H]3CCCC[C@H]32)C1 (stereo partly specified)
Result: 102

Problem: Repeat for the following compound: `O=C(c1cc(-c2ccccc2F)[nH]n1)N1CC[C@](O)(c2ccccc2)[C@H]2CCCC[C@H]21`
Result: 99

Problem: Repeat for the following compound: `O=C(c1ccccc1)N1CC[C@](O)(c2ccccc2)[C@H]2CCCC[C@H]21`
Result: 100

Problem: Repeat for the following compound: `CS(=O)(=O)c1ccc([C@@]2(O)CCN(C(=O)c3ccccc3)[C@H]3CCCC[C@@H]32)cc1`
Result: 56

Problem: Repeat for the following compound: O=C(c1ccon1)N1CC[C@@](O)(c2ccccc2)[C@@H]2CCCC[C@@H]21 (racemic)
Result: 102

Problem: Repeat for the following compound: CN1CCC(C(=O)N2CC[C@](O)(c3ccccc3)[C@H]3CCCC[C@@H]32)C1 (stereo partly specified)
Result: 34

Problem: Repeat for the following compound: O=C(c1ccncn1)N1CC[C@@](O)(c2ccccc2)[C@@H]2CCCC[C@@H]21 (racemic)
Result: 103

Problem: Repeat for the following compound: `O=C(c1cc(-c2ccccc2F)[nH]n1)N1CC[C@](O)(c2ccccc2)[C@H]2CCCC[C@@H]21`
Result: 81

Problem: Repeat for the following compound: O=C(c1ccc2cnccc2n1)N1CC[C@@](O)(c2ccccc2)[C@@H]2CCCC[C@@H]21 (racemic)
Result: 99

Problem: Repeat for the following compound: O=C1CC(C(=O)N2CC[C@@](O)(c3ccccc3)[C@@H]3CCCC[C@@H]32)CN1 (mixture of isomers)
Result: 89

====

Please go through the items and note down their IC50.
# target.or.system: Cannabinoid receptor 1 (Homo sapiens, UniProt P21554)
# Sequence (P21554 whole entry): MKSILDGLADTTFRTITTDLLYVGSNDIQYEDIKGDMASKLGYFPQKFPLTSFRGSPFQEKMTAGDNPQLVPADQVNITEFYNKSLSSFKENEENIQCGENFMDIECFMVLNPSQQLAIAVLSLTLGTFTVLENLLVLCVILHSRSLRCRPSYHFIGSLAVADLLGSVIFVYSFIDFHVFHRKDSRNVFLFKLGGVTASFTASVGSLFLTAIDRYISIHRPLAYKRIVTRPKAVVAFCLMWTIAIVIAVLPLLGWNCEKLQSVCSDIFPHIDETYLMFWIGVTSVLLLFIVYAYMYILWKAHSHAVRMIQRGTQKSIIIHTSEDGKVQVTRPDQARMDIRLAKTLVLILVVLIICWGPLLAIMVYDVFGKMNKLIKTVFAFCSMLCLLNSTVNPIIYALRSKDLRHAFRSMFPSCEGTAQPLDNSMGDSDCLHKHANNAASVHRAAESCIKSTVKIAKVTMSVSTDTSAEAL
# assay.text: Agonist activity at human CB1 receptor expressed in CHOK1 cells assessed as inhibition of forskolin-induced cAMP production treated 15 mins before forskolin challenge measured after 1 hr by HTRF assay

Problem: Lab note: need IC50 with Cannabinoid receptor 1 (Homo sapiens, UniProt P21554) for entry `O=C(c1ccc2ccccc2n1)N1CC[C@](O)(c2ccccc2)[C@H]2CCCC[C@@H]21` , please look it up.
Result: 2.02 µM

Problem: Repeat for the following molecule: O=C([C@@H]1C[C@@H](O)CCN1)N1CC[C@@](O)(c2ccccc2)[C@@H]2CCCC[C@@H]21 (racemic)
Result: > 17 µM

Problem: Repeat for the following molecule: `O=C(c1cccc2[nH]ccc12)N1CC[C@](O)(c2ccccc2)[C@H]2CCCC[C@@H]21`
Result: > 17 µM

Problem: Repeat for the following molecule: O=C(c1ccc2[nH]ccc2c1)N1CC[C@@](O)(c2ccccc2)[C@@H]2CCCC[C@@H]21 (racemic)
Result: 1 µM

Problem: Repeat for the following molecule: `O=C(c1ccc(Cl)cc1)N1CC[C@](O)(c2ccccc2)[C@H]2CCCC[C@H]21`
Result: 0.312 µM

Problem: Repeat for the following molecule: O=C(c1ccon1)N1CC[C@@](O)(c2ccccc2)[C@@H]2CCCC[C@@H]21 (racemic)
Result: > 17 µM

Problem: Repeat for the following molecule: CN1CCC(C(=O)N2CC[C@@](O)(c3ccccc3)[C@@H]3CCCC[C@@H]32)CC1 (racemic)
Result: > 17 µM

Problem: Repeat for the following molecule: `O=C(c1cc(-c2ccccc2F)[nH]n1)N1CC[C@](O)(c2ccccc2)[C@H]2CCCC[C@H]21`
Result: > 17 µM

====

# target.or.system: Cannabinoid receptor 2 (Homo sapiens, UniProt P34972)
# Sequence (P34972 whole entry): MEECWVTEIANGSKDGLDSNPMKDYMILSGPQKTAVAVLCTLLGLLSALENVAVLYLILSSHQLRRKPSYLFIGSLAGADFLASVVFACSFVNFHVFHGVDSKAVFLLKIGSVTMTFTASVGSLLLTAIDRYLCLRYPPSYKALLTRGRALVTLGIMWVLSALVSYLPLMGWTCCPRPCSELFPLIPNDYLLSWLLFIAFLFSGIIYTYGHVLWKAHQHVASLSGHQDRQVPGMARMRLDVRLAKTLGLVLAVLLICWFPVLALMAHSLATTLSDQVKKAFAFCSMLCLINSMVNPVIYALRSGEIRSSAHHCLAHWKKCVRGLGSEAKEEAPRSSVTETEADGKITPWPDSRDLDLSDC
# assay.text: Agonist activity at human CB2 receptor expressed in CHOK1 cells assessed as inhibition of forskolin-induced cAMP production treated 15 mins before forskolin challenge measured after 1 hr by HTRF assay relative to control
# Assay type: functional, cell-based
# condition.details: CHO-K1
Please go through the items and note down their Emax.
# unit: % | format: bare number

Problem: Need Emax, item O=C(c1csc(-c2ccncc2)n1)N1CCC(O)(c2ccccc2)[C@@H]2CCCC[C@@H]21 (single isomer, unassigned; form 2)
Result: 98

Problem: Repeat for the following molecule: `O=C(c1ccc(Cl)cc1)N1CC[C@](O)(c2ccccc2)[C@H]2CCCC[C@H]21`
Result: 90

Problem: Repeat for the following molecule: O=C(c1csc(-c2ccncc2)n1)N1CCC(O)(c2ccccc2)[C@@H]2CCCC[C@@H]21 (single isomer, unassigned; form 3)
Result: 97

Problem: Repeat for the following molecule: `O=C(c1ccccc1)N1CC[C@](O)(c2cccc(Cl)c2)[C@H]2CCCC[C@@H]21`
Result: 69
